biological target: mouse 11β-HSD1 (Mus musculus, UniProt P50172); construct: 100 ug/ml human/mouse liver microsomes; from tissue; host or cells: mouse liver microsomes; experiment: Enzyme activity analysis on mouse 11β-HSD1 (HTRF cortisol, liver microsomes); assay type: biochemical; conditions: second value of cell
Sequence (P50172 whole entry): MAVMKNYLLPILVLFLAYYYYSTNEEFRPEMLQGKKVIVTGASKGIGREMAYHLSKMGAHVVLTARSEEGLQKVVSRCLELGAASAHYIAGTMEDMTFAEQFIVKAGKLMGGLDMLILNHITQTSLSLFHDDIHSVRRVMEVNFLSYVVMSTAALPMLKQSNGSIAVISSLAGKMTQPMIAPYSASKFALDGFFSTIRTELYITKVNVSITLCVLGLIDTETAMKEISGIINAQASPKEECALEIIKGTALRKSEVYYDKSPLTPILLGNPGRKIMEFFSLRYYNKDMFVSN
measured attribute: IC50 (µM)
Response body: numeric value in µM, unit text excluded.

Check out these entries, answers already filled in.
compound | IC50, µM
COc1ccc(S(=O)(=O)NC(C)(C)C(=O)NC2C3CC4CC(C3)CC2C4)cc1[N+](=O)[O-] (stereo not shown) | 1.12
CN(C(C)(C)C(=O)NC1C2CC3CC1CC(C(N)=O)(C3)C2)S(=O)(=O)c1ccccc1[N+](=O)[O-] (stereo not shown) | 0.008
CC(C)(NS(=O)(=O)c1ccccc1Br)C(=O)NC1C2CC3CC(C2)CC1C3 (stereo not shown) | 0.051

Please find the next compound below.
Give a short answer stating reported IC50 for NC(=O)C12CC3CC(C1)C(NC(=O)C1(NS(=O)(=O)c4c(Cl)cccc4Cl)CC1)C(C3)C2 (stereo not shown) . 0.021
